# Tested on: MCF10A
# EXPERIMENTAL_DETAILS: one-nucleolus phenotype percent effect, hitpick validation (relative to siNT 0% and siNOL11 100%); higher = more cells with one nucleolus
# TEST_PARAMETERS: 20 nM; 72 h
Parameter one-nucleolus phenotype percent effect: see the listing below.
QUANTITY_KIND: one-nucleolus phenotype percent effect (%)

- POLYMER_SEQUENCE: "CUCUUGAGGGAAGCACUUUCUGU [hsa-miR-526b-5p]"
  UNIT_DESCRIPTOR: "%"
  NUMERIC_READOUT: 81.9
- POLYMER_SEQUENCE: "CAGCCUCUGCCCUUGGCCUCC [hsa-miR-6877-3p]"
  UNIT_DESCRIPTOR: "%"
  NUMERIC_READOUT: 153
- POLYMER_SEQUENCE: "GUGUGUGGAAAUGCUUCUGC [hsa-miR-147a]"
  UNIT_DESCRIPTOR: "%"
  NUMERIC_READOUT: 103
- POLYMER_SEQUENCE: "UGGCAAGGAAAGAAGAGGAUCA [hsa-miR-6809-5p]"
  UNIT_DESCRIPTOR: "%"
  NUMERIC_READOUT: 207
- POLYMER_SEQUENCE: "CUGCCAAUUCCAUAGGUCACAG [hsa-miR-192-3p]"
  UNIT_DESCRIPTOR: "%"
  NUMERIC_READOUT: 137
- POLYMER_SEQUENCE: "CUUAUGCAAGAUUCCCUUCUAC [hsa-miR-491-3p]"
  UNIT_DESCRIPTOR: "%"
  NUMERIC_READOUT: 118
- POLYMER_SEQUENCE: "GAGGGCGGGUGGAGGAGGA [hsa-miR-3141]"
  UNIT_DESCRIPTOR: "%"
  NUMERIC_READOUT: 129
- POLYMER_SEQUENCE: "UUUGGGACUGAUCUUGAUGUCU [hsa-miR-3913-5p]"
  UNIT_DESCRIPTOR: "%"
  NUMERIC_READOUT: -50.6
- POLYMER_SEQUENCE: "AGUGUGGCUUUCUUAGAGC [hsa-miR-644a]"
  UNIT_DESCRIPTOR: "%"
  NUMERIC_READOUT: 170
- POLYMER_SEQUENCE: "GGCUCCUCCUCUCAGGAUGUG [hsa-miR-4268]"
  UNIT_DESCRIPTOR: "%"
  NUMERIC_READOUT: -21.2
- POLYMER_SEQUENCE: "AAGGAGCUCACAGUCUAUUGAG [hsa-miR-28-5p]"
  UNIT_DESCRIPTOR: "%"
  NUMERIC_READOUT: 146
- POLYMER_SEQUENCE: "UGUGUGGAUCCUGGAGGAGGCA [hsa-miR-3911]"
  UNIT_DESCRIPTOR: "%"
  NUMERIC_READOUT: 129
